// growth lookup, one value per entry
Test system: SNB-19 CNS
assay-remarks: NCI-60 one-dose screen, 48 h (100 = growth as untreated, 0 = no growth, -100 = all killed)
measurement-conditions: 10 µM
Compounds without any hit were thinned out: in the full panel of roughly 83,000, 20% have a hit.
property: growth (%)

compound: O=[N+]([O-])c1ccc(O)c(S(=O)(=O)O)c1
property: growth
reading: 105

compound: CC1CC(O)C2C3(C)CCCC2(COC3=O)C12CCC1(CCOC1=O)O2 (configuration not stated)
property: growth
reading: 108

compound: S=C1CCCCCN1
property: growth
reading: 99.1

compound: NC(C(=O)O)c1ccc([N+](=O)[O-])cc1 (configuration not stated)
property: growth
reading: 99.6

compound: Cc1cc(C)c(N)c(S(=O)(=O)O)c1
property: growth
reading: 96.5

compound: OCc1ccc(-c2ccc(-c3ccc(CO)s3)o2)s1
property: growth
reading: 78.4

compound: Cc1cc(=O)[nH]c(NN=C2CCCC2)n1
property: growth
reading: 108

Source: PubChem BioAssay (NCI)
